The following binders are shown together with reported OD values values.
- TARGET OF ASSAY: T1, human galectin-10-His (human)
- T1 construct: The last M of the tag may be Met1 of galectin-10; also called humanGal10-His; hGal10
- T1 chain: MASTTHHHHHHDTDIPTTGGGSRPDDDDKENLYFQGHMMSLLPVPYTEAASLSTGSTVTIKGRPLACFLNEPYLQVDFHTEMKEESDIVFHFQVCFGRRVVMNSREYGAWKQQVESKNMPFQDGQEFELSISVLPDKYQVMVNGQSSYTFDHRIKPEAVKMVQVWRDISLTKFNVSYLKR
- PROTOCOL: ELISA, coated antigen 0.5 ug/mL
Report only the number, with the unit OD understood.

Some solved cases for reference:
>>> number("1D11 mouse IgG1 (antibody, V domains shown, Llama VH and VL on mouse IgG1 heavy chain constant domains (CH1-CH2-CH3) and mouse lambda light chain constant domain; also called 1D011; 1D11 mIgG1) VH: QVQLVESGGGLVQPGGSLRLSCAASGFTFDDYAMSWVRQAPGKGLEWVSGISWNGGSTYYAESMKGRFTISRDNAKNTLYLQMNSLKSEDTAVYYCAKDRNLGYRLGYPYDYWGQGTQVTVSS VL: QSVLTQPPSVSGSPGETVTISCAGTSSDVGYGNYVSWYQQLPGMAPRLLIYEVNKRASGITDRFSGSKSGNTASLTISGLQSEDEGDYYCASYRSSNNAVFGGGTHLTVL")
2
>>> number("10D02 mouse IgG1 (antibody, V domains shown, VH and VL cloned in frame with mouse IgG1 constant domains; also called 10D02 mIgG1) VH: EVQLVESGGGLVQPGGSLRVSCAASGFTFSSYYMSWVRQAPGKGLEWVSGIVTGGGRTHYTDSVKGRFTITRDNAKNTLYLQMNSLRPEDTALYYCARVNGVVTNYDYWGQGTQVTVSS VL: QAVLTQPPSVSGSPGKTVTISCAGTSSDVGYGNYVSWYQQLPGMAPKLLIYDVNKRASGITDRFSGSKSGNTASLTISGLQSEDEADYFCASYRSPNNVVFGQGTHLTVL")
2.7
>>> number("7B07 mouse IgG1 (antibody, V domains shown, VH and VL cloned in frame with mouse IgG1 constant domains; also called 7B07 mIgG1) VH: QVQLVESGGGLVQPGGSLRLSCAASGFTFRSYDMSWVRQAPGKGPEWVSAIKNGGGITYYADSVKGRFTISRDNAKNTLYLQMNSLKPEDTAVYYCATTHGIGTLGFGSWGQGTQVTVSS VL: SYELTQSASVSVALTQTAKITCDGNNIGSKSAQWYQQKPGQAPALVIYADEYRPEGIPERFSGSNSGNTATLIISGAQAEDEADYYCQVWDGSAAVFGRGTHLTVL")
0.4
>>> number("10B02 mouse IgG1 (antibody, V domains shown, VH and VL cloned in frame with mouse IgG1 constant domains; also called 10B02 mIgG1) VH: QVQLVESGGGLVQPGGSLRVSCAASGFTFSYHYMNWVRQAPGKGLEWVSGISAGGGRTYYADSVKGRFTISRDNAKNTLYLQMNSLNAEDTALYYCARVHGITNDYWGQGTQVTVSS VL: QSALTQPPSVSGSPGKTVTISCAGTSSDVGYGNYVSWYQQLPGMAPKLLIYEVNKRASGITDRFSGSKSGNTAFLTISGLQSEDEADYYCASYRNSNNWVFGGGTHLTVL")
1.4
>>> number("8H11 mouse IgG1 (antibody, V domains shown, VH and VL cloned in frame with mouse IgG1 constant domains; also called 8H11 mIgG1) VH: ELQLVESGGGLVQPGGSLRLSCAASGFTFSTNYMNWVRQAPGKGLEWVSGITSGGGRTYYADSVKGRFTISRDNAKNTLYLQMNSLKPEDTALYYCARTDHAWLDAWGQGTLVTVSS VL: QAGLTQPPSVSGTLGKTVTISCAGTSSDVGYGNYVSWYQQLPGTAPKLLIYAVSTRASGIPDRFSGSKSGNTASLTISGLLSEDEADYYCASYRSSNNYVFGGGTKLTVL")
1.5
>>> number("11F02 mouse IgG1 (antibody, V domains shown, VH and VL cloned in frame with mouse IgG1 constant domains; also called 11F02 mIgG1) VH: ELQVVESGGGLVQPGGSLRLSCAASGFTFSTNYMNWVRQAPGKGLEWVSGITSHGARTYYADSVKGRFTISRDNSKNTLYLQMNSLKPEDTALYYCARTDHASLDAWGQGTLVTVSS VL: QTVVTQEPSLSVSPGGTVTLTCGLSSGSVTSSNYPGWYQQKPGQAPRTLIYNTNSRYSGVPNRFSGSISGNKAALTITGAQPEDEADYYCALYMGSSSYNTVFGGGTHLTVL")
0.9
>>> number("11F12 mouse IgG1 (antibody, V domains shown, VH and VL cloned in frame with mouse IgG1 constant domains; also called 11F12 mIgG1) VH: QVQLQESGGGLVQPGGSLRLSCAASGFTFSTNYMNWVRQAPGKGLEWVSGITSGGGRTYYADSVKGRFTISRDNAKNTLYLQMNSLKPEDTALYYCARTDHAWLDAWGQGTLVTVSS VL: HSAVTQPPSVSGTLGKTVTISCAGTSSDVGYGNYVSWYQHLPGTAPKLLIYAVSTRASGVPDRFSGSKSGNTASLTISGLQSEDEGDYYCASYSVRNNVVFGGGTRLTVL")
2.7

Then there is this binder:
Name the recorded OD values of the item 10A06 mouse IgG1 (antibody, V domains shown, VH and VL cloned in frame with mouse IgG1 constant domains; also called 10A06 mIgG1) VH: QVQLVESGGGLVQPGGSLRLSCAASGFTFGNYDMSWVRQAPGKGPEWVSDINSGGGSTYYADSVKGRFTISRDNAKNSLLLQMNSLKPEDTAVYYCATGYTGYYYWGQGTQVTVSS VL: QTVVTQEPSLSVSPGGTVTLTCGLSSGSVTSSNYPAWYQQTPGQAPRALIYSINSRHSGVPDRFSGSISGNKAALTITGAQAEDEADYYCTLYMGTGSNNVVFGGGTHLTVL in your answer.
0.3
